- System: HCT116/dtxE cells
- assay: Cell viability assay (MTT, EZ4U)
- Type: cell-based, human
- assay-conditions: Homo sapiens, HCT-116; HCT116/dtxE, about one year of selection, 72 h, MTT; mean (± SD), n ≥ 3
reported-property: pIC50
Units for pIC50: none; it is -log10 of a concentration expressed in mol/L.

[in] Notebook: pull reported pIC50 for HCT116/dtxE cells, entry CC[C@@]1(O)C(=O)OCc2c1cc1n(c2=O)Cc2cc3c(CN(C)C)c(O)ccc3nc2-1
[out] 7.60

###

- Test system: HCT116/dtxA cells
- assay: Cell viability assay (MTT, EZ4U)
- Format: cell-based, human
- assay-conditions: HCT116/dtxA, about one year of selection, 72 h, MTT; mean (± SD), n ≥ 3
Quick reference: pIC50 of the listed items.
// scale note: pIC50 = -log10(conc_M); give the bare number

compound	reported-property	assay-value
O=C1[O][Pt]2([NH][C@@H]3CCCC[C@H]3[NH]2)[O]C1=O	pIC50	6.30
Nc1ccn([C@@H]2O[C@H](CO)[C@@H](O)C2(F)F)c(=O)n1	pIC50	6.40
NC(=S)N/N=C/c1ncccc1N	pIC50	6.22
O=c1[nH]cc(F)c(=O)[nH]1	pIC50	4.44

Next, consider the following compound.
[in] Record request: pIC50 value, item N.N.[Cl][Pt][Cl] [Cisplatin]
[out] 5.72

###

- System: HCT116/wt cells
- assay: Cell viability assay (MTT, EZ4U)
- Format: cell-based, human
- assay-conditions: Homo sapiens, HCT-116, 72 h, mean (± SD) of at least three independent experiments in triplicates
reported-property: IC50 (µM)
Give the quantity in µM, number only.

[in] Returns the measured IC50 for the input compound. Input: CC[C@@]1(O)C(=O)OCc2c1cc1n(c2=O)Cc2cc3c(CN(C)C)c(O)ccc3nc2-1
[out] 0.0274
